B1: RHOBTB3 (parent)
chain: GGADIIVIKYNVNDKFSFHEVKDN

Variants of: B1
Experiment: protein stability index of a GFP-peptide fusion (GPS, HEK-293T) (PSI 1-6); higher = more stable;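 note: lentivirally expressed fusions sorted by FACS into six bins by GFP to DsRed ratio, PSI derived from sequencing read proportions per bin multiplied by bin number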
Details: c terminus: a fixed tail appended
ENDPOINT_LABEL: protein stability index
Please reply with the value in numeric form only.

The examples below pair each entry with its known result.
VARIANT_CODE	QUANTITATIVE_READOUT
F18M	1.87
F16M	2.04
N13I	2.93
D4L	1.8
F18V	2.49
K22Q	2.01
S17D	2.64
K15N	3.83
G1Y	2.04
V7M	2.06

Output measured protein stability index for this item: N13A
3.68

Quote protein stability index reported for Y10W please.
3.26

Supply measured protein stability index of K22C in your reply.
2.88

Supply recorded protein stability index for K22E here.
3.13

Note down protein stability index recorded for D4I
3.04
